The measured values listed here are drawn from the RNAGym collection of RNA variant scans (doi:10.1073/pnas.2313332121).

B1: TPR t1 (parent)
chain: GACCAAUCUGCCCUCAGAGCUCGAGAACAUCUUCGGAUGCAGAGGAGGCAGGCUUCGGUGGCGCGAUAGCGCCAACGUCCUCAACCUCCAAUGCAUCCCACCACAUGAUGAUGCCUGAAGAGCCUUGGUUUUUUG

# Variants of: B1
# EXPERIMENT NOTES: polymerase ribozyme fitness, log enrichment relative to wild type (log ratio); higher = more active; in vitro selection for triplet polymerase activity
The following ranges of polymerase ribozyme fitness (log ratio) define the classes used here: low group (below -4), middle group (-4 to below -2), high group (-2 or more)

Before answering, review these 5 worked examples.
C40G G48U
high group
C53U G71C C82G
high group
C70U A83C A108G
middle group
C8G C11U U116C G120U
high group
G39A G128A
middle group

Enquiry: Class? Entry: A6U C13A C40U C62A A95U
Return: middle group

Enquiry: Input A26U C82G C115U ; output its category
Return: low group

Enquiry: Class label required: C4U C11U A18G C34U C73G C124G
Return: low group

Enquiry: For the record A90C A91C G110A , report the class its polymerase ribozyme fitness (log ratio) corresponds to.
Return: low group

Enquiry: Textbook exercise: identify the category of the variant given here, C8G A43U , according to its measured value.
Return: high group

Enquiry: Band assignment needed for U9A U30C G44A G57U G60A U112G U125A please.
Return: low group

Enquiry: Hi there! Could you help me figure out the category for U21A U87G please?
Return: high group

Enquiry: Field: class (polymerase ribozyme fitness (log ratio)) — entry: C34A G52A U96C C124A
Return: high group

Enquiry: Category of G36C C40G C72U C73A :
Return: low group

Enquiry: The entry to classify is C89G C104A ; which class holds it?
Return: middle group
